The measurements presented in this section are drawn from ChEMBL document CHEMBL2040709.

Provide the recorded zone of inhibition at 1000 µg/mL for the entries that follow.
# Test system: Bacillus subtilis
# Test protocol: Antibacterial activity against Bacillus subtilis at 1000 ug/ml after 24 hrs by agar disc diffusion method
# Format: functional
# Stated conditions: read-out: DIZ
Answers are plain numbers, in mm.

Below, each entry is followed by its recorded zone of inhibition at 1000 µg/mL result.
query: Checklist item: zone of inhibition at 1000 µg/mL tested on Bacillus subtilis, entry `CCCCCCCCCCCCCCCCCc1nnc(-c2ccccc2)o1` , value?
result: 16

query: # repeat for `CCCCCCCCCCCCCCCCCc1nn2c(-c3ccccc3)nnc2s1`
result: 16

query: # repeat for `CCCCCCCCCCCCCCCCCc1nnc(-c2ccccc2)n1N`
result: 15

// below: zone of inhibition at 1000 µg/mL requested for another molecule
query: Checklist item: zone of inhibition at 1000 µg/mL tested on Bacillus subtilis, entry `CN(C)[C@@H]1C(O)=C(C(N)=O)C(=O)[C@@]2(O)C(O)=C3C(=O)c4c(O)cccc4[C@@](C)(O)[C@H]3C[C@@H]12` , value?
result: 20

###

# Test system: Pseudomonas aeruginosa
# Test protocol: Antibacterial activity against Pseudomonas aeruginosa at 1000 ug/ml after 24 hrs by agar disc diffusion method
# Format: functional
# Stated conditions: read-out: DIZ
Assay metric: zone of inhibition at 1000 µg/mL

Below, each entry is followed by its recorded zone of inhibition at 1000 µg/mL result.
query: Checklist item: zone of inhibition at 1000 µg/mL tested on Pseudomonas aeruginosa, entry `CCCCCCCCCCCCCCCCCc1nnc(-c2ccccc2)o1` , value?
result: 17 mm

query: # repeat for `CCCCCCCCCCCCCCCCCc1nn2c(-c3ccccc3)nnc2s1`
result: 19 mm

query: # repeat for `CN(C)[C@@H]1C(O)=C(C(N)=O)C(=O)[C@@]2(O)C(O)=C3C(=O)c4c(O)cccc4[C@@](C)(O)[C@H]3C[C@@H]12`
result: 22 mm

// below: zone of inhibition at 1000 µg/mL requested for another compound
query: Checklist item: zone of inhibition at 1000 µg/mL tested on Pseudomonas aeruginosa, entry `CCCCCCCCCCCCCCCCCc1nnc(-c2ccccc2)n1N` , value?
result: 16 mm

###

# System: Pseudomonas aeruginosa
# Test protocol: Antibacterial activity against Pseudomonas aeruginosa at 500 ug/ml after 24 hrs by agar disc diffusion method
# Format: functional
# Stated conditions: read-out: DIZ
Provide the recorded zone of inhibition at 500 µg/mL for the entries that follow.
One number for each entry, in mm.

Below, each entry is followed by its recorded zone of inhibition at 500 µg/mL result.
query: Looking for the measured zone of inhibition at 500 µg/mL of `CCCCCCCCCCCCCCCCCc1nn2c(-c3ccccc3)nnc2s1` , can you help?
result: 15

query: # repeat for `CCCCCCCCCCCCCCCCCc1nnc(-c2ccccc2)o1`
result: 16

query: # repeat for `CN(C)[C@@H]1C(O)=C(C(N)=O)C(=O)[C@@]2(O)C(O)=C3C(=O)c4c(O)cccc4[C@@](C)(O)[C@H]3C[C@@H]12`
result: 16

Others:
query: Looking for the measured zone of inhibition at 500 µg/mL of `CCCCCCCCCCCCCCCCCc1nnc(-c2ccccc2)n1N` , can you help?
result: 13

###

Provide the recorded zone of inhibition at 500 µg/mL for the entries that follow.
# Test system: Bacillus subtilis
# Test protocol: Antibacterial activity against Bacillus subtilis at 500 ug/ml after 24 hrs by agar disc diffusion method
# Type: functional
# Stated conditions: read-out: DIZ
One number for each entry, in mm.

query: Looking for the measured zone of inhibition at 500 µg/mL of `CCCCCCCCCCCCCCCCCc1nnc(-c2ccccc2)n1N` , can you help?
result: 12

query: # repeat for `CCCCCCCCCCCCCCCCCc1nnc(-c2ccccc2)o1`
result: 13

query: # repeat for CN(C)[C@@H]1C(O)=C(C(N)=O)C(=O)[C@@]2(O)C(O)=C3C(=O)c4c(O)cccc4[C@@](C)(O)[C@H]3C[C@@H]12 [TETRACYCLINE]
result: 13

Others:
query: Looking for the measured zone of inhibition at 500 µg/mL of `CCCCCCCCCCCCCCCCCc1nn2c(-c3ccccc3)nnc2s1` , can you help?
result: 13
